Source of measurements: patent US9364476B2

- test.name: Solubility of the API
- Assay type: physicochemical
- experimental.context: ethanol, organic solvent or mixture; read-out: solubility in ethanol
assay.endpoint: solubility

* C=CC(=O)Nc1cccc(Nc2nc(Nc3ccc(OCCOC)cc3)ncc2F)c1.O=S(=O)(O)c1ccccc1 | ~10000 µg/mL

====

- test.name: Solubility of the API
- Assay type: physicochemical
- experimental.context: water; read-out: solubility in water
assay.endpoint: solubility

• C=CC(=O)Nc1cccc(Nc2nc(Nc3ccc(OCCOC)cc3)ncc2F)c1.O=S(=O)(O)c1ccccc1 = ~160 µg/mL
